method: yeast display, Sf9 membrane polyspecificity reagent, FACS + sequencing; frameworks hold sequencing errors

sequence record: QVQLVESGGGLVQAGGSLRLSCAASGITFRTYAMGWNRQAPGKERELVAAITRRGGSTYYADSVKGRFTISRDNAKNTVYLQMNSLKPEDTAVYYCAVRHNGIQASVGYDYWGQGTQVTVSS
polyreactivity (PSR sort gate): high polyreactivity
//
sequence record: QVQLVDSGGGLVQAGGSLRLGCAASGRIFAGYGMGWYRQAPGKERELVATITSGGSTYYADSLKGRFTISRDNAKNTVYLQMNSLKPEDTAVYYCNRYFSEALLHGSSYNRYYYWGQGTQVSVSS
polyreactivity (PSR sort gate): low polyreactivity
//
sequence record: QVQLVESGGGLVQAGGSLRLSCAASGSIFVNNAMGWYRQAPGKERELVAAISSRGGSTYYADSVKGRFTISRDNAKNTVYLQMNSLKPEDTAVYYCAAEYDGPYYSFYPEQRYYWGLGTQVTVSS
polyreactivity (PSR sort gate): low polyreactivity
//
sequence record: QVQIVESGGGLVQAGGSLRLSCAASGFIFYSYAMGWYRQAPGKEREFVASISGRTGSTYYADSVKVRFTISRDNAKNTVYLQMNSLKPEDTAVYYCNARIVHSFRYDYWGQGTQVTVSS
polyreactivity (PSR sort gate): low polyreactivity
//
sequence record: QVQLVESGGGLVQAGGSLRLSCAASGSIFPGYAMGWSRQAPGKERELVAAISTSGGSTYADSVKGRFTISRDNAKNTVYLQMNSLKPEDTAVYYCAATYTYTSPVYYSLDGPWPYDYWGQGTQVTVSS
polyreactivity (PSR sort gate): low polyreactivity
//
sequence record: QVQLVESGGGLVQAGGSLRLSCAASGFTFKYYVMGWYRQAPGKERELVASISKRGGSTRYADSVKGRFTISRDNAKNTVYLQMNSLKPEDTAVYYCAARSKVHRWRKRYDYWGQGTQVSVSS
polyreactivity (PSR sort gate): high polyreactivity
//
sequence record: QVQLVESGGGLVQAGGSLRLSCAAYGRTIRVYAMVWYRQAPGKERELVAAITSGDSTYYADSVKGRFTISRDNAKNTVYLQMNSLKPEDTAVYYCAVNTRRYWYGYWGQGTQVTVSS
polyreactivity (PSR sort gate): high polyreactivity
//
sequence record: QVQLVESGGGLVQAGGSLRLSCAASGSTFGGYAMGWYRQAPGKERELVATINYSDGSTYYADSVKGRFTISRDNAKNTVYLQMNSLKPEDTAVYYCAKRFGSGWAWFGYWGQGTQVTVSS
polyreactivity (PSR sort gate): low polyreactivity
//
sequence record: QVQLVESGGGLVQAGGSLRLSCAASGSTFTLYAMGWYRQAPGKERELVAAISGIGDSTYYADSVKGRFTISRDNAKNTVYFQMNSLKPEDTAVYYCAADGEYRYVWEYESWGQGTQVTVSS
polyreactivity (PSR sort gate): low polyreactivity
//
sequence record: QVHLVESGGGLVQAGGSLRLSCAASGRTFGYYAMGWYRQAPGKERELVATISGRAGRTYYADSVKGRFTISRDNAKNTVYLQMNSLKPEDTAVYYCATRSLQKYYWIANSYGYWGHGTQVTVSS
polyreactivity (PSR sort gate): high polyreactivity
//
sequence record: QVQLVESGGGLVQAAGSLRLSCAASGRIFTPYAMGWYRQAPGKERELVAVIRDGSTYYADSVKGRFTISRDNAKNTVYLQMNSLKPEDTAVYYCRYDIWVWWSGAYDYWGLGTQVTVSS
polyreactivity (PSR sort gate): low polyreactivity
